assay.method.text: NCI Yeast Anticancer Drug Screen. Data for the mec2-1 strain (AID 157)
assay.context: S. cerevisiae mec2-1 strain, at 50.0 µM (retest, dose inferred, filed as 5.0), stronger effect = higher value
Compounds without any hit were thinned out: in the full panel of roughly 79,000, 15% have a hit.
Entries annotated with measured growth inhibition
endpoint.name: growth inhibition (%)

1) CC(=O)Nc1ccc(/C=N\NC(=O)c2ccco2)cc1 :: -7
2) CCCCNCCCNCCCNC(=O)c1csc(-c2csc(CCNC(=O)C(NC(=O)C(C)C(O)C(C)NC(=O)C(NC(=O)c3nc(C(CC(N)=O)NCC(N)C(N)=O)nc(N)c3C)C(OC3OC(CO)C(O)C(O)C3OC3OC(CO)C(O)C(OC(N)=O)C3O)c3cnc[nH]3)C(C)O)n2)n1 (stereo not given) :: 99
3) O=C(NC1=Nc2c(ncn2COCCO)S(=O)(=O)[N-]1)c1ccccc1.[Ag+] :: 100
4) c1ccc2c(c1)ccc1c2ccc2sc3ccccc3[n+]21 :: 96
5) NS(=O)(=O)c1ccc(NC(=O)Cc2nc3ccccc3s2)cc1 :: 99
6) COc1ccc(Cc2ccccc2C(=O)O)c2ccccc12 :: 98
7) CCC(c1ccc(Cl)cc1)C(C#N)c1ccc(Cl)cc1 (stereo not given) :: 33
8) C=CC(=O)c1ccc2c(c1)OCCOCCOCCOCCOCCO2 :: 50
9) CC(NC(=O)OCc1ccccc1)C(=O)NC(C(=O)O)C(C)C (stereo not given) :: 46
10) O=S(=O)(c1cc(Br)ccc1O)c1cc(Br)ccc1O :: 100
11) CCOC(=O)C1(C#N)C(c2ccccc2)CC(O)(c2ccc([N+](=O)[O-])cc2)C(C(=O)c2ccc([N+](=O)[O-])cc2)C1c1ccccc1 (stereo not given) :: -12
12) O=NN(CCCl)C(=O)Oc1ccc(OC(=O)N(CCCl)N=O)cc1 :: 99
13) COc1ccc2c(N3CCN(C(=O)C(Cl)(Cl)Cl)CC3)cc(C)nc2c1 :: 0
14) C/C(=N\NC(N)=S)c1ccc(C2CCCCC2)cc1 :: 98
15) O=S(=O)(O)CC[S][Sn]([S]CCS(=O)(=O)O)([c]1ccccc1)[c]1ccccc1 (tested in a mixture with another compound) :: 98
16) c1ccc(N/N=C2/CCCC3/C(=N\Nc4ccccc4)CCCC23)cc1 (stereo not given) :: 99
17) CC(C)=CCc1c(O)cc(O)c2c1OC(c1ccc(O)cc1)C(O)C2=O (stereo not given) :: 99
18) O=Cc1c(O)ccc2ccccc12 :: 98
19) Clc1nc(Cl)c(Cc2ccccc2)c(Cl)n1 :: 99
20) CN(C)CCOC1OCN(C)CC1(C)C (stereo not given) :: -7

---

assay.method.text: NCI Yeast Anticancer Drug Screen. Data for the sgs1 mgt1 strain (AID 161);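 further: 0% = growth of cultures given vehicle only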
assay.context: S. cerevisiae sgs1 mgt1 strain, at 5.0 µM (retest, dose inferred, filed as 0.5)
This is part of a sample that, as a whole, favours compounds with a hit. Of some 79,000 tested, about 15% had one in any assay. Active and inactive are the calls of the source. Cut-off read from the data, not from the text of the source: active = growth inhibition above about 70%; inactive = the rest. *1 amine or outer side, *2 acyl side, *3 side chain or, on linkers, in order; H or OH if unused. Where a SMILES comes first, the peptide text is derived from it. Bridges are numbered along the chain shown (N, C = ends). [ ]: non-standard residue; d: D form. The star is where a group is joined. ξ: configuration not given here. ξOrn(4,5-diOH) = O=C(C(CC(O)C(O)N[*:3])N[*:1])[*:2]; ξhTyr(βξ-OH,γξ-OH) = NC(C(=O)O)C(O)C(O)c1ccc(O)cc1; ξPro(3ξ-OH,4ξ-Me) = CC1CNC(C(=O)O)C1O; X1 = CCCCC/C=C/C/C=C\CCCCCCCC(=O)*; Hyp = O=C(O)[CH]1C[CH](O)CN1
Labels: 1 (active), 0 (inactive)

1. CCCCC/C=C/C/C=C\CCCCCCCC(=O)NC1CC(O)C(O)NC(=O)C2C(O)C(C)CN2C(=O)C(C(C)O)NC(=O)C(C(O)C(O)c2ccc(O)cc2)NC(=O)C2CC(O)CN2C(=O)C(C(C)O)NC1=O (stereo not drawn) (X1-[ξOrn(4,5-diOH)]T[Hyp][ξhTyr(βξ-OH,γξ-OH)]T[ξPro(3ξ-OH,4ξ-Me)]; lactam 1-C; configuration not given here) :: 0
2. O=C(Nc1ccc(O)cc1O)c1ccccc1 :: 0
3. O=C1OC(OCC#CCOC2OC(=O)C(Cl)=C2Cl)C(Cl)=C1Cl (configuration not stated) :: 0
4. C=C(C)COc1ccccc1C(OCC)OCC :: 0
5. CCCCC(=O)N/N=C(\C)[C@]1(O)Cc2c(O)c3c(c(O)c2[C@@H](OC2CC(N)C(O)C(C)O2)C1)C(=O)c1c(OC)cccc1C3=O (some centres not stated) :: 0
6. CC1(C)CC[C@]2(C(=O)O)CC[C@]3(C)C(=CC[C@@H]4[C@@]5(C)C[C@H](O)[C@H](O)[C@@](C)(C(=O)O)[C@@H]5CC[C@]43C)[C@@H]2C1 :: 1
7. CC1=C(Br)S(=O)(=O)N(c2ccccc2)C(CBr)=C1Br :: 1
8. COc1cccc(/C=C/C(C)=O)c1OC :: 0
9. COC(=O)C1C(=O)CC(c2ccccc2)C1c1ccccc1 (configuration not stated) :: 0
10. S=C1NCCNC(=S)SS1 :: 0
11. CC(C)(C)c1cc(C(P(=O)(c2ccccc2)c2ccccc2)P(=O)(c2ccccc2)c2ccccc2)cc(C(C)(C)C)c1O :: 0
12. CCCCC#CCOC(=O)c1cc([N+](=O)[O-])cc([N+](=O)[O-])c1 :: 1
13. O=C(NO)Nc1nc(Cl)c(Cl)nc1Cl :: 0
14. Cc1c(N)ccc(O)c1C :: 0
15. c1csc(-c2nnc(C34CC5CC(CC(C5)C3)C4)o2)c1 :: 0
16. COC1=CC(=O)C(C#CCOCc2ccccc2)=CC1=O :: 0
17. C=C(Br)COc1ccc2c(C)cc(=O)oc2c1 :: 0
18. C[C@]12C[C@H](c3ccccc3)Nc3ccccc3N1C(c1ccccc1)=NO2 :: 0
19. COc1ccc(/C=N/N=c2\[nH][nH]/c(=N\N=C\c3ccc(OC)c4ccccc34)c3ccccc23)c2ccccc12 :: 0
20. O=C1OC(=O)c2cccc3cccc1c23 :: 0
21. C#CCN1CCN(C(=S)N/N=C(\C)c2ccccn2)CC1 :: 0
22. Oc1cc2c(cc1C(Nc1ncccn1)c1ccc(F)cc1)OCO2 (configuration not stated) :: 0
23. CC1=CC(C)C(C)N(CCNC(=O)Nc2ccccc2)c2ccccc21 (configuration not stated) :: 0
24. C/C(=N/NC(=S)N(C)C)c1ccccc1O :: 0
25. O=C(NC1=Nc2c(ncn2COCCO)S(=O)(=O)[N-]1)c1ccccc1.[Ag+] :: 1
26. CSc1cc2c(cc1N)Cc1cc(F)ccc1-2 :: 0
27. O=C1C(Cl)=C(N2C(=O)CCCC2=O)C(=O)c2ccccc21 :: 1
28. O=C1CCCCCCC2=C1C(Sc1ccccc1)CC2 (configuration not stated) :: 0
29. COc1ccc(/C=C(/NC(=O)c2ccccc2)C(=O)Nc2ccccc2)cc1OC :: 0
30. CCCCCCCSCc1nc2ccccc2c(C)[n+]1[O-] :: 0
31. Cc1ccc(NCCN(C)C)c2c(=O)c3ccc(O)cc3sc12 :: 0
32. CCCCCC(C1SC(=S)NC1=O)C1SC(=S)NC1=O (configuration not stated) :: 0
33. COc1ccc(Cl)c(-c2cc(OC)c(N=N/C(=N/Nc3ccc([N+](=O)[O-])cc3)c3ccc([N+](=O)[O-])cc3)cc2Cl)c1 :: 0
34. NS(=O)(=O)c1ccc(NC(=O)Cc2nc3ccccc3s2)cc1 :: 0
35. CCCC(CCC)NCCOC(=O)C(CC)c1ccccc1 (configuration not stated) :: 0
36. CCOc1ccc2nc(Cl)sc2c1 :: 0
37. O=C1C(Sc2ccc3ccccc3c2)=C(Sc2ccc3ccccc3c2)C(=O)c2ccccc21 :: 0
38. Oc1ccc(Cc2cc(Cl)cc(Cl)c2O)cc1Cl :: 0
39. CC(C)C(Br)CC/C(CBr)=C(\Cl)CCl (configuration not stated) :: 0
40. Cc1ccc(C2C(O)=C(c3ccccc3)Sc3ccc(C)cc32)cc1 (configuration not stated) :: 0
41. COc1cccc2c1C(=O)c1c(O)c3c(c(O)c1C2=O)C[C@@](O)(/C(C)=N/NS(C)(=O)=O)C[C@@H]3OC1CC(N)C(O)C(C)O1 (some centres not stated) :: 0
42. CCSC(=O)/C=C1\CN(C(=O)OC(C)(C)C)C1C(=O)OC(C)(C)C (configuration not stated) :: 0
